# assay_remarks: CREB reporter modulators without forskolin, primary screen, cell-based, PC12, CRE-LacZ reporter, unstimulated (AID 1145)
# run_parameters: no forskolin, luminescence, 4.5 h, higher = more signal, called active from +8 up or from −8 down
# reported z-score; entries follow
The response must contain the number and no unit.

INSERT INTO measurements (compound, observed_value) VALUES
  ('CC(C)[C@H]1NC(=O)[C@@]23C(=O)N[C@@H](Cc4ccccc4)C2[C@H](C)[C@@]2(C)O[C@H]2C3/C=C/C/C=C\CNC(=O)[C@H](C)NC1=O (stereo not given in full)', 0.306),
  ('COC(=O)[C@H]1[C@@H]2COc3ccccc3[C@H]2N[C@H]1C(=O)OC', 2.13),
  ('COCCOC(=O)N1C(=O)[C@@]2(c3cc(C#CC4=CCCCC4)ccc31)[C@H](C(=O)NC[C@H](O)c1ccccc1)[C@H]1C(=O)O[C@H](c3ccccc3)[C@H](c3ccccc3)N1[C@@H]2c1ccccc1OCCO', 0.48),
  ('C=C(/C(=C/C[C@@H](OC(=O)c1ccncc1)c1ccc(CO)o1)c1cnc2ccccc2c1)C(C)C', 2.21),
  ('Cc1ccc(S(=O)(=O)N2[C@@H](c3ccccc3)C(C(=O)O)=CC[C@H]2c2ccccc2)cc1', 0.0707);

Q) Please give the documented z-score of COC(=O)C1=C(C)N(Cc2ccccc2)c2c(C(=O)OC)c(C(=O)OC)c(C(=O)OC)c(=O)n2[C@@H]1c1ccccc1
A) 4.26

Q) Please give the documented z-score of CO[C@H]1COC(=O)[C@@H](C)COC(=O)[C@H](Cc2ccccc2)NC(=O)CC=C[C@H]1C
A) 0.432

Q) Please give the documented z-score of C=CC(=O)O[C@@H](Cc1ccccc1)[C@H]1C2C=CCCC=C2CN1Cc1cccc(Cl)c1 (stereo not given in full)
A) 1.03

Q) Please give the documented z-score of O=C/C=C/c1ccccc1Cl
A) -0.0243

Q) Please give the documented z-score of C=CC[C@]1(C(N)=O)N=C(c2ccc(OCCCO)cc2)O[C@H]1c1ccccc1CN=[N+]=[N-]
A) 1.54

====

# assay_remarks: small-molecule microarray binders of probe aXIP, primary screen, biochemical, NeuroSMM set, 635/667 nm fluorescence (AID 1119);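 also: probe is the protein aXip251-270 applied at 1 µg/mL to compound-printed slides; binding of probe to printed compounds measured as 667 nm fluorescence plus signal to noise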
# run_parameters: higher = more signal, called active from +8 up or from −8 down
Short version: composite Z-score at least -0.09 is true, less is false.

Q) Textbook exercise: given the entry CC(=O)NCCCC[C@@H]1NC(=O)[C@@H]2C[C@H](C(=O)NCCCCCCN(C)C)[C@H](c3ccc(O)cc3)N2C1=O , state whether its composite Z-score is greater than or equal to -0.09.
A) true

Q) Textbook exercise: given the entry C#CCCCON=C1C[C@@H](O)[C@@H](O)[C@@H]2[C@@H]3C(=O)N(Cc4ccc5c(c4)OCO5)C(=O)[C@@H]3CC[C@@H]12 , state whether its composite Z-score is greater than or equal to -0.09.
A) true

Q) Textbook exercise: given the entry Cc1ccc(N2C(=O)c3ccccc3[C@@H](C(=O)NCc3ccccc3)[C@@H]2c2ccc(CO)cc2)nc1 , state whether its composite Z-score is greater than or equal to -0.09.
A) false

Q) Textbook exercise: given the entry CO[C@@H]1COC(=O)[C@H](COCc2ccccc2)NC(=O)CC=C[C@@H](C)[C@H](OC)COC(=O)[C@H](COCc2ccccc2)NC(=O)CC=C[C@H]1C , state whether its composite Z-score is greater than or equal to -0.09.
A) false

Q) Textbook exercise: given the entry O=C1O[C@H](c2ccccc2)[C@H](c2ccccc2)N2[C@H]1[C@@H](C(=O)Nc1nc3ccccc3s1)[C@]1(C(=O)Nc3ccc(C#CC4=CCCCC4)cc31)[C@H]2c1ccccc1OCCO , state whether its composite Z-score is greater than or equal to -0.09.
A) true

Q) Textbook exercise: given the entry CCCC=C(CCC)[C@@H](NS(=O)(=O)c1ccc(-c2ccccc2)cc1)c1ccc(C(=O)OC)cc1 , state whether its composite Z-score is greater than or equal to -0.09.
A) false
